Provenance of the data: the supplement of paper PMC7125110

B1: glmS ribozyme (parent)
chain: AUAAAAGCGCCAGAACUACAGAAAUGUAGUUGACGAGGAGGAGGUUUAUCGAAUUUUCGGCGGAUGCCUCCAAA

- Variants of: B1
- TEST METHOD NOTES: self-cleavage kobs at 2500 uM GlcN6P; higher = faster cleavage; RNA array
- CONDITION: with glucosamine-6-phosphate
This sample holds only a part of the variants without activity.
// self-cleavage kobs at 2500 uM GlcN6P lookup, one value per entry
Report the value in s⁻¹ with no unit label.

Please review the entries below; each comes with its answer.
1) C16U U47G :: 0.00142
2) U31C U55A :: 0.00333

GET /value?item= G38U U49G U57A C70G &field=self-cleavage kobs at 2500 uM GlcN6P returns 6.84e-05
